Item-by-item account of pEC50
biological target: h5-HT2B (Homo sapiens, UniProt P41595); assay: Ca2+ mobilization assay; format: cell-based; conditions: h5-HT2B EC50, Ca2+ mobilization
Sequence (P41595 whole entry): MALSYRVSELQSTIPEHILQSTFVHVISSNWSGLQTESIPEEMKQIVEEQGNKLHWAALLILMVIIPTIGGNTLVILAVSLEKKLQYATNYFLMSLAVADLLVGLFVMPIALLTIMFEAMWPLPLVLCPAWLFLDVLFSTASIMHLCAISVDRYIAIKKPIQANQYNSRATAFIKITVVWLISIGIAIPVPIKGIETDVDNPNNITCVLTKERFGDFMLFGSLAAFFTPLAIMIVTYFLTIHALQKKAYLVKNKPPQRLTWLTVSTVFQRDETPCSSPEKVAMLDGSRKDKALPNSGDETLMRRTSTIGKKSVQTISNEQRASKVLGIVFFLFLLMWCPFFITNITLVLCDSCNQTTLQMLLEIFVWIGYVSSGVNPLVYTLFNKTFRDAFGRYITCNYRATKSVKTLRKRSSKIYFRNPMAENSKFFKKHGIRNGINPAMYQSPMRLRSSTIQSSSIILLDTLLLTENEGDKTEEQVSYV
pEC50: −log10 of the molar value.

| Item smiles | pEC50 |
| --- | --- |
| COc1ccc(CNCCc2cc(OC)c(I)cc2OC)cc1 | 7.06 |
| COc1ccc2[nH]cc(CCNCc3ccccc3OC)c2c1 | 8.17 |
| COc1cc(CCNCc2ccccc2Br)c(OC)cc1I | 6.87 |

====

Item-by-item account of Emax
biological target: UniProt P28335; assay: Ca2+ mobilization assay; format: cell-based; conditions: HEK293, read-out: h5HT2C Emax
Sequence (P28335 33-458): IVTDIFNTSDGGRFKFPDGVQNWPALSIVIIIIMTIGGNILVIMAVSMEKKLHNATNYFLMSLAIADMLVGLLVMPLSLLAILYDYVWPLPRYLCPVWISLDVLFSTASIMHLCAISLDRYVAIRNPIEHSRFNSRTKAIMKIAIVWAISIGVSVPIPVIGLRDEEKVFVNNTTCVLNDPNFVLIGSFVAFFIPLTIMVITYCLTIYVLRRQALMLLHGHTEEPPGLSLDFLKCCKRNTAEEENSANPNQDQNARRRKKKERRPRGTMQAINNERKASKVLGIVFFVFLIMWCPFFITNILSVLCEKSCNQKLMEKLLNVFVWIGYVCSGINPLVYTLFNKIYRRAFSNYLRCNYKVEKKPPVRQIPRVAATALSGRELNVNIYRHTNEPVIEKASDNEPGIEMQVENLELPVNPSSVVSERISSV
Endpoint label: Emax (%)

| Item smiles | Endpoint label | Observed value |
| --- | --- | --- |
| COc1ccc2[nH]cc(CCNCc3cccc(F)c3)c2c1 | Emax | 83 |
| COc1ccc2[nH]cc(CCNCc3cccc(Br)c3)c2c1 | Emax | 64 |
| COc1cccc(CNCCc2cc(OC)c(I)cc2OC)c1 | Emax | 41 |
| COc1ccc2[nH]cc(CCNCc3ccc(Br)cc3)c2c1 | Emax | 83 |
| COc1ccc2[nH]cc(CCNCc3cccc(C(F)(F)F)c3)c2c1 | Emax | 75 |
| COc1cc(CCNCc2cccc(Br)c2)c(OC)cc1I | Emax | 74 |
| COc1ccc2[nH]cc(CCNCc3ccccc3Br)c2c1 | Emax | 94 |
| COc1cc(CCNCc2ccccc2OC)c(OC)cc1I | Emax | 92 |
| COc1cccc(CNCCc2c[nH]c3ccc(OC)cc23)c1 | Emax | 65 |
| COc1cc(CCNCc2ccccc2Br)c(OC)cc1I | Emax | 87 |
